Origin of measurements: the supplement of paper PMC4862054

# Test system: SK-BR-3
# PROCEDURE SUMMARY: normalised viability (% of control), CellTiter-Blue; higher = more viable cells (about 100 = DMSO control)
# CONDITION PARAMETERS: 10 nM; incubation time: 72 h
MEASURED PROPERTY: normalised viability (%)

[[record]]
molecule = "Cc1ccc(Nc2nccc(N(C)c3ccc4c(C)n(C)nc4c3)n2)cc1S(N)(=O)=O"
unit_of_measurement = "%"
readout_value = 98.4

[[record]]
molecule = "CS(=O)(=O)N1CCN(Cc2cc3nc(-c4cccc5[nH]ncc45)nc(N4CCOCC4)c3s2)CC1"
unit_of_measurement = "%"
readout_value = 92.3

[[record]]
molecule = "O=C(NC[C@H](O)CO)c1ccncc1Nc1ccc(I)cc1F"
unit_of_measurement = "%"
readout_value = 98.4

[[record]]
molecule = "Cc1c(CN2CCN(C(=O)[C@H](C)O)CC2)sc2c(N3CCOCC3)nc(-c3cnc(N)nc3)nc12"
unit_of_measurement = "%"
readout_value = 102


====

# Tested on: MDA-MB-436
# PROCEDURE SUMMARY: normalised response (% of control), CellTiter-Glo; higher = more viable cells (100 = DMSO, 0 = benzethonium chloride kill control)
# CONDITION PARAMETERS: incubation time: 72 h
Readings of normalised response for the listed compounds
MEASURED PROPERTY: normalised response (%)

[[record]]
compound = "CC(C)N(CCCNC(=O)Nc1ccc(C(C)(C)C)cc1)C[C@H]1O[C@@H](n2cc(Br)c3c(N)ncnc32)[C@H](O)[C@@H]1O [SGC0946] (100 nM)"
measured_property = "normalised response"
readout_value = 99.4

[[record]]
compound = "O=C(CCBr)N1CCN(C(=O)CCBr)CC1 [Pipobroman] (100 nM)"
measured_property = "normalised response"
readout_value = 91.5

[[record]]
compound = "O=C1c2c(O)ccc(O)c2C(=O)c2c(NCCNCCO)ccc(NCCNCCO)c21 [Mitoxantrone] (10 nM)"
measured_property = "normalised response"
readout_value = 92.7

[[record]]
compound = "COc1ccc(-c2cc3c(C)nc(N)nc3n([C@H]3CC[C@H](OCCO)CC3)c2=O)cn1 (100 nM)"
measured_property = "normalised response"
readout_value = 77

[[record]]
compound = "c1cc(CN2CCCNCCNCCCNCC2)ccc1CN1CCCNCCNCCCNCC1 [Plerixafor] (100 nM)"
measured_property = "normalised response"
readout_value = 92

[[record]]
compound = "CC(=O)OC[C@H]1O[C@@H]([S-])[C@H](OC(C)=O)[C@@H](OC(C)=O)[C@@H]1OC(C)=O.CCP(CC)CC.[Au+] [Auranofin] (25 nM)"
measured_property = "normalised response"
readout_value = 103

[[record]]
compound = "O=C(Nc1c[nH]nc1-c1nc2ccc(CN3CCOCC3)cc2[nH]1)NC1CC1 [AT9283] (10 nM)"
measured_property = "normalised response"
readout_value = 105


====

Readings of normalised response for the listed compounds
# Test system: HCC1599
# PROCEDURE SUMMARY: normalised response (% of control), CellTiter-Glo; higher = more viable cells (100 = DMSO, 0 = benzethonium chloride kill control)
# CONDITION PARAMETERS: incubation time: 72 h
MEASURED PROPERTY: normalised response (%)

[[record]]
compound = "CC[C@@]1(O)C(=O)OCc2c1cc1n(c2=O)Cc2cc3c(CN(C)C)c(O)ccc3nc2-1 [Topotecan] (10000 nM)"
measured_property = "normalised response"
readout_value = 9.36

[[record]]
compound = "CCC/C=C/C=C/C(=O)O[C@H]1/C(=C/C(=O)OC)C[C@H]2C[C@H]([C@@H](C)O)OC(=O)C[C@H](O)C[C@@H]3C[C@H](OC(C)=O)C(C)(C)[C@](O)(C[C@@H]4C/C(=C/C(=O)OC)C[C@H](/C=C/C(C)(C)[C@]1(O)O2)O4)O3 [Bryostatin 1] (100 nM)"
measured_property = "normalised response"
readout_value = 86.4

[[record]]
compound = "O=C(Nc1c[nH]nc1-c1nc2ccc(CN3CCOCC3)cc2[nH]1)NC1CC1 [AT9283] (1000 nM)"
measured_property = "normalised response"
readout_value = 74.4


====

# Tested on: MDA-MB-436
# PROCEDURE SUMMARY: drug sensitivity score (DSS), CellTox Green (DSS (AUC-based score)); higher = stronger drug effect (viability inhibition or cytotoxicity); extreme values may be limits of the assay
# CONDITION PARAMETERS: incubation time: 72 h
MEASURED PROPERTY: drug sensitivity score

[[record]]
compound = "c1cc(CN2CCCNCCNCCCNCC2)ccc1CN1CCCNCCNCCCNCC1"
readout_value = 0

[[record]]
compound = "Nc1cccc2c1CN(C1CCC(=O)NC1=O)C2=O (stereo not drawn) [Lenalidomide]"
readout_value = 0

[[record]]
compound = "O=C(CCBr)N1CCN(C(=O)CCBr)CC1"
readout_value = 0


====

Readings of drug sensitivity score for the listed compounds
# Tested on: CAL-120
# PROCEDURE SUMMARY: drug sensitivity score (DSS), CellTiter-Glo (DSS (AUC-based score)); higher = stronger drug effect (viability inhibition or cytotoxicity); extreme values may be limits of the assay
# CONDITION PARAMETERS: incubation time: 72 h
MEASURED PROPERTY: drug sensitivity score

[[record]]
compound = "C[C@]12C=CC(=O)C=C1CC[C@@H]1[C@@H]2[C@@H](O)C[C@@]2(C)[C@H]1CC[C@]2(O)C(=O)CO [Prednisolone]"
target_or_system = "CAL-120"
readout_value = 5.1

[[record]]
compound = "CC[C@@]1(O)C(=O)OCc2c1cc1n(c2=O)Cc2cc3c(CN(C)C)c(O)ccc3nc2-1 [Topotecan]"
target_or_system = "CAL-120"
readout_value = 5.11

[[record]]
compound = "CC(C)N(CCCNC(=O)Nc1ccc(C(C)(C)C)cc1)C[C@H]1O[C@@H](n2cc(Br)c3c(N)ncnc32)[C@H](O)[C@@H]1O [SGC0946]"
target_or_system = "CAL-120"
readout_value = 0

[[record]]
compound = "O=C1c2c(O)ccc(O)c2C(=O)c2c(NCCNCCO)ccc(NCCNCCO)c21 [Mitoxantrone]"
target_or_system = "CAL-120"
readout_value = 0

[[record]]
compound = "Cc1c(Cn2c(C)nc3c(C(=O)O)cc(N4CCOCC4)cc32)cccc1C(F)(F)F"
target_or_system = "CAL-120"
readout_value = 0

[[record]]
compound = "Cn1cc(CNCC2CCN(c3ncc(C(=O)NO)cn3)CC2)c2ccccc21 [Quisinostat]"
target_or_system = "CAL-120"
readout_value = 12.3

[[record]]
compound = "COc1nc(N)nc2c1ncn2[C@@H]1O[C@H](CO)[C@@H](O)[C@@H]1O [Nelarabine]"
target_or_system = "CAL-120"
readout_value = 0


====

# Tested on: BT-474
# PROCEDURE SUMMARY: normalised response (% of control), CellTox Green; higher = less cell death (100 = DMSO, 0 = benzethonium chloride kill control)
# CONDITION PARAMETERS: incubation time: 72 h
Readings of normalised response for the listed compounds
MEASURED PROPERTY: normalised response (%)

[[record]]
compound = "CC/C(=C(\\c1ccc(O)cc1)c1ccc(OCCN(C)C)cc1)c1ccccc1 [4-hydroxytamoxifen] (10000 nM)"
measured_property = "normalised response"
unit_of_measurement = "%"
readout_value = 14.6

[[record]]
compound = "Cn1cc(CNCC2CCN(c3ncc(C(=O)NO)cn3)CC2)c2ccccc21 [Quisinostat] (1000 nM)"
measured_property = "normalised response"
unit_of_measurement = "%"
readout_value = 35.7

[[record]]
compound = "O=C(Nc1c[nH]nc1-c1nc2ccc(CN3CCOCC3)cc2[nH]1)NC1CC1 [AT9283] (100 nM)"
measured_property = "normalised response"
unit_of_measurement = "%"
readout_value = 103

[[record]]
compound = "O=C(CCBr)N1CCN(C(=O)CCBr)CC1 [Pipobroman] (1000 nM)"
measured_property = "normalised response"
unit_of_measurement = "%"
readout_value = 100

[[record]]
compound = "CCC/C=C/C=C/C(=O)O[C@H]1/C(=C/C(=O)OC)C[C@H]2C[C@H]([C@@H](C)O)OC(=O)C[C@H](O)C[C@@H]3C[C@H](OC(C)=O)C(C)(C)[C@](O)(C[C@@H]4C/C(=C/C(=O)OC)C[C@H](/C=C/C(C)(C)[C@]1(O)O2)O4)O3 [Bryostatin 1] (1 nM)"
measured_property = "normalised response"
unit_of_measurement = "%"
readout_value = 86.8

[[record]]
compound = "Nc1ccccc1NC(=O)c1ccc(CNc2nccc(-c3cccnc3)n2)cc1 [Mocetinostat] (1000 nM)"
measured_property = "normalised response"
unit_of_measurement = "%"
readout_value = 96

[[record]]
compound = "O=C(NC[C@H](O)CO)c1ccncc1Nc1ccc(I)cc1F [Pimasertib] (10000 nM)"
measured_property = "normalised response"
unit_of_measurement = "%"
readout_value = 88.3

